This collection of values is drawn from patent US20220195063A1.

target: human SIRPαBIT expressed on cells (human) (UniProt P78324)
Sequence (P78324 31-504): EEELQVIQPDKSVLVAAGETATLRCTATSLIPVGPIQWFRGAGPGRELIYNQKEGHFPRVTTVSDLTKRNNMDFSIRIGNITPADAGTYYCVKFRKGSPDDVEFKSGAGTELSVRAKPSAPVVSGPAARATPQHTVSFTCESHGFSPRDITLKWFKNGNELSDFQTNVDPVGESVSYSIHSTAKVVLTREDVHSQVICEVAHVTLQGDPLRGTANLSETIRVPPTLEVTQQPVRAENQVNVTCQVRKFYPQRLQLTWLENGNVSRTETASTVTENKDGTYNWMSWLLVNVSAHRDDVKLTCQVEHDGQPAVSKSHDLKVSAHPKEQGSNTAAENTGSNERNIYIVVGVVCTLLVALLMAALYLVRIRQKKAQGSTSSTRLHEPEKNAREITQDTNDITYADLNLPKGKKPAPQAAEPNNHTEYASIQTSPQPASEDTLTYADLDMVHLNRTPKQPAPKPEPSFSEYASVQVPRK
protocol_details: flow cytometry, U937 cells
quantity_measured: EC50
State the value, then name its unit.

Task: What value of EC50 has been reported for the following binder? anti-SIRPα antibody 16 humanized (antibody, human IgG1, kappa, L234A L235A, V domains shown) VH: RSVEESGGRLVTPGTPLTLTCTVSGFSLSSHGISWVRQAPGKGLEYIGTIGTGVITYFASWAKGRFTGSKTSTTVDLKITSPTTEDTATYFCARGSAWNDPFDPWGPGTLVTVSS VL: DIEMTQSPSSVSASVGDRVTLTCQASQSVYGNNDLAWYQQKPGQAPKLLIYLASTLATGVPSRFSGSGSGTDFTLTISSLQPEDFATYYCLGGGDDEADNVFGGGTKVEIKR
Result: 0.23 µg/mL

Task: What value of EC50 has been reported for the following binder? anti-SIRPα antibody 9 (antibody, human IgG1, kappa, L234A L235A, V domains shown, Rabbit variable regions on human IgG1 LALA / kappa) VH: QSMEESGGRLVTPGTPLTLTCTASGFSLSNYGVSWVRQAPGKGLEWIGIIYGGSDITAYASWAKGRFTISKTSTTVDLTITSPTTEDTATYFCAKSYTNGMDYYNIWGPGTLVTVSL VL: AFDLTQTPSSVEAPVGGTVIIKCQASQSISSYLAWYQQKPGQPPKLLIYSASTLASGVSSRFKGSGSETQFPLTISDLESADAATYYCQSYYGSRSNVFGGGTEVVVKR
Result: 0.11 µg/mL

Task: What value of EC50 has been reported for the following binder? 29AM4-5huIgG1LALA (antibody, V domains shown, HAVT20 leader left out) VH: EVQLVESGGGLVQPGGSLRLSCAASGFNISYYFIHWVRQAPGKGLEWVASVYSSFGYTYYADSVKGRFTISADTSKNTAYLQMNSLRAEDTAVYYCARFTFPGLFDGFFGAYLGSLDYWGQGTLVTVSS VL: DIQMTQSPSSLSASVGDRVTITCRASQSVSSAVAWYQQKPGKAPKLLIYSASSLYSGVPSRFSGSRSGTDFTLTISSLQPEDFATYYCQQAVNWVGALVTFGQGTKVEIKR
Result: 0.25 µg/mL

Task: What value of EC50 has been reported for the following binder? 12C4huIgG1LALA (antibody, V domains shown, HAVT20 leader left out; also called 12C4LALA; huIgG112C4LALA) VH: EVKLEESGGGLMQPGGSMKLSCVASGFTFSNYWMNWVRQSPEKGLEWVAEIRLKSNNYATHYAESVKGRFTISRDDSKSSVYLQMNNLRAEDTGIYYCIRDYDYDAYFDYWGQGTTLTVSS VL: DIVLTQSPASLAVSLGQRATISCRASKSVSTSGYNYMYWYQQKPGQPPKLLIYLASNLESGVPARFSGSGSGTDFTLNIHPVEEEDAATYYCQHSGELPYTFGGGTKLEIKR
Result: 0.19 µg/mL

Task: What value of EC50 has been reported for the following binder? anti-SIRPα antibody 15 humanized (antibody, human IgG1, kappa, L234A L235A, V domains shown) VH: RSVEESGGRLVTPGTPLTLTCTVSGFSLSSHGISWVRQAPGKGLEYIGTIGTGVITYFASWAKGRFTGSKTSTTVDLKITSPTTEDTATYFCARGSAWNDPFDPWGPGTLVTVSS VL: ELVMTQSPSSLSASVGDRVTITCQASQSVYGNNDLAWYQQKPGEAPKLLIYLASTLATGVPSRFSGSGSGTDFTLTISGLQSEDFATYYCLGGGDDEADNVFGQGTKVEIKR
Result: 0.16 µg/mL
